Please respond with reported pIC50 for every item in the list.
molecular target: Voltage-dependent N-type calcium channel subunit alpha-1B (Homo sapiens); experiment: In vitro inhibition against N-type calcium influx in IMR-32 cells
Sequence (Q00975 whole entry): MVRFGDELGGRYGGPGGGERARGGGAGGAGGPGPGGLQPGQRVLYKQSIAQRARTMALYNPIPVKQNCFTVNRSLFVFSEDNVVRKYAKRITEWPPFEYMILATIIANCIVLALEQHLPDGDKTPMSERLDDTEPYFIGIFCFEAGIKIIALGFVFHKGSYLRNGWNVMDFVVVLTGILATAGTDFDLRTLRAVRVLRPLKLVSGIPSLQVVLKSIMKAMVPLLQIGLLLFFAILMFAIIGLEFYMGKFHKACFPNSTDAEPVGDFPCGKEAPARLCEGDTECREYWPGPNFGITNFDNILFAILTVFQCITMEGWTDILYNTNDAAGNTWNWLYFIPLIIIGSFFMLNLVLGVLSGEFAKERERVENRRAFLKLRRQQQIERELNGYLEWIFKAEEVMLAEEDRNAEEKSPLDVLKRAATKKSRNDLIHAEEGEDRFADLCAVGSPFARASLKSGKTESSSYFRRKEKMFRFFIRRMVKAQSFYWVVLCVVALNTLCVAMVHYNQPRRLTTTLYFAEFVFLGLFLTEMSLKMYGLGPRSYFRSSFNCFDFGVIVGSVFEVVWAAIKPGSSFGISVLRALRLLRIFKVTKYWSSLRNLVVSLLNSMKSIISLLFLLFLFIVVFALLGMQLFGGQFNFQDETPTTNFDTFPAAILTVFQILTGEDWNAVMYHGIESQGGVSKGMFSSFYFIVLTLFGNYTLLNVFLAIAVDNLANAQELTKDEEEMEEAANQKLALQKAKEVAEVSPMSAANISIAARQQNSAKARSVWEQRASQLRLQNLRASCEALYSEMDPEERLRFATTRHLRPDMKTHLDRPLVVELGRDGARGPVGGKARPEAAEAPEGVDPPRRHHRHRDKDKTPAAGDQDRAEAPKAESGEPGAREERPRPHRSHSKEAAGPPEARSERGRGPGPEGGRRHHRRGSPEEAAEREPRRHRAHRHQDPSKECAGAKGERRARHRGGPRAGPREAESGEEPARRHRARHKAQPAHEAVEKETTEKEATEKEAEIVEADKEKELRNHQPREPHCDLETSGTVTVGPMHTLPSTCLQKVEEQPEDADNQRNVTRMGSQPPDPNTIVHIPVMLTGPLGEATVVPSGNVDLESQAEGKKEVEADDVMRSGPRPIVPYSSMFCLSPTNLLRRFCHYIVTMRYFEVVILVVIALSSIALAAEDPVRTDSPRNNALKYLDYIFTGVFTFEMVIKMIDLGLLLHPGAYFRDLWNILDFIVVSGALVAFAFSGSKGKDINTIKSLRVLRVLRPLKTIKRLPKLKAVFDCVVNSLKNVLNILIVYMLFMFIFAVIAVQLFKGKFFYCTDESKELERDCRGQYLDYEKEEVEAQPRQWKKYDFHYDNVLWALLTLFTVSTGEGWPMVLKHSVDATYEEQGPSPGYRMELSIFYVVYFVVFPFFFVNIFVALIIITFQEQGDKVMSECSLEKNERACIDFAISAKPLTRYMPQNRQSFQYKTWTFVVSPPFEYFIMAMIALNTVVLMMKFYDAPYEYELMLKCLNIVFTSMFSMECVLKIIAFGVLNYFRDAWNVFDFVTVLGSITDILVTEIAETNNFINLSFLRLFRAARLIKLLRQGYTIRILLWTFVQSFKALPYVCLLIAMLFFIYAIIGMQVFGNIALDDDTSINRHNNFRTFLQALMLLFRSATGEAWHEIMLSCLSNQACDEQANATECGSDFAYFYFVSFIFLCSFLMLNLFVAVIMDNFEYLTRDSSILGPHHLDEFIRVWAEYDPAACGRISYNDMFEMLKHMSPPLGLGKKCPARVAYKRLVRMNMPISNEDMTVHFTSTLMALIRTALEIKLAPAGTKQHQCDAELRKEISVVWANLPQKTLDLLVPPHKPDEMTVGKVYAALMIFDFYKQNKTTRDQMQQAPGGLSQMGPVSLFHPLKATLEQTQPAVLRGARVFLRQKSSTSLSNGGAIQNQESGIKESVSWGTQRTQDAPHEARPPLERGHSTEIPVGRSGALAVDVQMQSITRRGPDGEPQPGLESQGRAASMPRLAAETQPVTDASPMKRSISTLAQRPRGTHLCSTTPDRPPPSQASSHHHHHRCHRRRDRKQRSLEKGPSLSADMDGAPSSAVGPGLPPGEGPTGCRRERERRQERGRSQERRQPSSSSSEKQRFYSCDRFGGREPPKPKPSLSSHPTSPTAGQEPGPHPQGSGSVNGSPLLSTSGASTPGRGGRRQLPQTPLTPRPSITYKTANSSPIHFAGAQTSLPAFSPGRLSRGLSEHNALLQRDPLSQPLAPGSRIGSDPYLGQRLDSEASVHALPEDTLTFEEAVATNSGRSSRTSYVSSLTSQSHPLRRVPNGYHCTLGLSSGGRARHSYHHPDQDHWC
Scale: negative log10 of molar concentration, which is what pIC50 denotes.

Entry COc1ccc(COC(=O)[C@H](COCC2CCCCC2)NC(=O)OC(C)(C)C)cc1 , Voltage-dependent N-type calcium channel subunit alpha-1B (Homo sapiens) data, pIC50 value: 5.92

Entry CC(C)(C)OC(=O)N[C@@H](CC(=O)OC1CCCC1)C(=O)OCc1ccc(Cl)cc1 , Voltage-dependent N-type calcium channel subunit alpha-1B (Homo sapiens) data, pIC50 value: 5.48

Entry COc1ccc(CN(C)C(=O)[C@H](COCC2CCCCC2)NC(=O)OC(C)(C)C)cc1 , Voltage-dependent N-type calcium channel subunit alpha-1B (Homo sapiens) data, pIC50 value: 5.74

Entry COc1ccc(CNC(=O)[C@H](CSCC2CCCCC2)NC(=O)OC(C)(C)C)cc1 , Voltage-dependent N-type calcium channel subunit alpha-1B (Homo sapiens) data, pIC50 value: 6.21

Entry COc1ccc(COC(=O)[C@H](CC(=O)OC2CCCC2)NC(=O)OC(C)(C)C)cc1 , Voltage-dependent N-type calcium channel subunit alpha-1B (Homo sapiens) data, pIC50 value: 5.47

Entry COC(=O)C[C@H](NC(=O)OC(C)(C)C)C(=O)OCc1ccc(OC)cc1 , Voltage-dependent N-type calcium channel subunit alpha-1B (Homo sapiens) data, pIC50 value: 4.59

Entry COc1ccc(COC(=O)[C@H](CC(=O)OC2CCCCCC2)NC(=O)OC(C)(C)C)cc1 , Voltage-dependent N-type calcium channel subunit alpha-1B (Homo sapiens) data, pIC50 value: 5.59

Entry COc1ccc(COC(=O)[C@H](CC(=O)OC2CCC2)NC(=O)OC(C)(C)C)cc1 , Voltage-dependent N-type calcium channel subunit alpha-1B (Homo sapiens) data, pIC50 value: 4.82

Entry COc1ccc(COC(=O)[C@H](COC(=O)C2CCCCC2)NC(=O)OC(C)(C)C)cc1 , Voltage-dependent N-type calcium channel subunit alpha-1B (Homo sapiens) data, pIC50 value: 5.80

Entry COc1ccc(CNC(=O)[C@H](CCOC2CCCCC2)NC(=O)OC(C)(C)C)cc1 , Voltage-dependent N-type calcium channel subunit alpha-1B (Homo sapiens) data, pIC50 value: 5.40

Entry COc1ccccc1COC(=O)[C@H](CC(=O)OC1CCCC1)NC(=O)OC(C)(C)C , Voltage-dependent N-type calcium channel subunit alpha-1B (Homo sapiens) data, pIC50 value: 5.27

Entry CC(C)(C)OC(=O)N[C@@H](CC(=O)OC1CCCC1)C(=O)OCc1ccc(Br)cc1 , Voltage-dependent N-type calcium channel subunit alpha-1B (Homo sapiens) data, pIC50 value: 5.47

Entry COc1ccc(CNC(=O)[C@H](CSCC2CCCC2)NC(=O)OC(C)(C)C)cc1 , Voltage-dependent N-type calcium channel subunit alpha-1B (Homo sapiens) data, pIC50 value: 6.20

Entry COc1ccc(COC(=O)[C@@H](CC(=O)OC2CCCC2)NC(=O)OC(C)(C)C)cc1 , Voltage-dependent N-type calcium channel subunit alpha-1B (Homo sapiens) data, pIC50 value: 5.70

Entry COc1ccc(COC(=O)[C@H](CC(=O)OC2CCCCC2)NC(=O)OC(C)(C)C)cc1 , Voltage-dependent N-type calcium channel subunit alpha-1B (Homo sapiens) data, pIC50 value: 5.64

Entry COc1ccc(CNC(=O)[C@H](COCC2CCCCC2)NC(=O)OC(C)(C)C)cc1 , Voltage-dependent N-type calcium channel subunit alpha-1B (Homo sapiens) data, pIC50 value: 6.02

Entry COc1cccc(COC(=O)[C@H](CC(=O)OC2CCCC2)NC(=O)OC(C)(C)C)c1 , Voltage-dependent N-type calcium channel subunit alpha-1B (Homo sapiens) data, pIC50 value: 5.42
